These data points were gathered from ChEMBL document CHEMBL1961873.

Molecular target: Tyrosine-protein kinase Fgr (Homo sapiens) (UniProt P09769);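 also: reported values are mean percent inhibition of FGR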
Sequence (P09769 2-529 limits assumed): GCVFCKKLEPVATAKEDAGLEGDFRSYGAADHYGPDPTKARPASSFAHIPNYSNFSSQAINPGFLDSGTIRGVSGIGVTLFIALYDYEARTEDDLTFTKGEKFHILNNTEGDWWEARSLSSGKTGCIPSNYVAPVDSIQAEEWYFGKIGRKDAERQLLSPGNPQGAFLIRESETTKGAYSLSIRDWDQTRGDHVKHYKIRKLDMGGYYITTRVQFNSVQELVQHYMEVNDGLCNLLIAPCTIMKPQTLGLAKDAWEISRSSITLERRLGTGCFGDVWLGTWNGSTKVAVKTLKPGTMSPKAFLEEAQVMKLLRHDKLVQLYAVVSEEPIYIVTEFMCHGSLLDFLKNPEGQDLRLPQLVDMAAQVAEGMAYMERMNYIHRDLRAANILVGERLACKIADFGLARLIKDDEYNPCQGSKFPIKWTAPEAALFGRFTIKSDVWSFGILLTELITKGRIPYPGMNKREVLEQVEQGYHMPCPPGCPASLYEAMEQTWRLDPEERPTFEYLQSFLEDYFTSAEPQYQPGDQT
Settings: at 0.1 µM
Answer false (0) if inhibition is under 3%, and true (1) if it is 3% or more.

[
  {
    "Molecule": "O=C1NC(=O)C(c2cccc(Cl)c2)=C1Nc1ccc(Cl)c(C(=O)O)c1",
    "Group": "true (1)"
  },
  {
    "Molecule": "COc1ccc2cc(-c3c(-c4ccncc4)nc(-c4ccc([S+](C)[O-])cc4C)n3C)ccc2c1 (stereo not given)",
    "Group": "false (0)"
  },
  {
    "Molecule": "NS(=O)(=O)c1ccc(N/N=C2\\C(=O)Nc3ccc(-c4cnco4)cc32)cc1",
    "Group": "true (1)"
  },
  {
    "Molecule": "COc1cc(Nc2ncc3c(C)nc(-c4cccc(C(F)(F)F)c4)n3n2)cc(OC)c1OC",
    "Group": "true (1)"
  },
  {
    "Molecule": "C#Cc1cccc(Nc2ncnc3ccc(OCCCCNCCS(C)(=O)=O)cc23)c1",
    "Group": "true (1)"
  },
  {
    "Molecule": "Cc1ccc(C(=O)NC2CCC2)cc1-c1ccc(C(=O)NCC2CC2)cc1",
    "Group": "false (0)"
  },
  {
    "Molecule": "NS(=O)(=O)c1ccc(N/N=C2\\C(=O)Nc3ccc(C(=O)NCCCn4ccnc4)cc32)cc1",
    "Group": "true (1)"
  },
  {
    "Molecule": "Fc1ccc(-c2nc3n(c2-c2ccncc2)CCS3)cc1",
    "Group": "true (1)"
  },
  {
    "Molecule": "Cc1nnc(-c2ccc(C)c(-c3ccc(C(=O)NCc4ccc(Cl)cc4)cc3)c2)o1",
    "Group": "true (1)"
  },
  {
    "Molecule": "Fc1ccc(-c2c(-c3ccncc3)nc3n2CCS3)cc1",
    "Group": "false (0)"
  }
]

* * *

This section presents compounds with their documented inhibition values.
Biological target: Leucine-rich repeat serine/threonine-protein kinase 2 (Homo sapiens);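 also: mean percent inhibition of LRRK2 measured in the GSK PKIS kinase inhibitor set screen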
Conditions: at 1 µM

[
  {
    "Compound": "CCc1ccc(Oc2nccc(-c3c(-c4ccc(F)cc4)ncn3C3CCNCC3)n2)cc1",
    "inhibition [%]": 6
  },
  {
    "Compound": "Fc1ccc(-c2ncn(CCCN3CCOCC3)c2-c2ccncc2)cc1",
    "inhibition [%]": 3.28
  },
  {
    "Compound": "Nc1nccc(-c2c(-c3ccc(F)cc3)ncn2C2CCC(O)CC2)n1 (stereo unspecified)",
    "inhibition [%]": 0.86
  },
  {
    "Compound": "Clc1ccc(CNc2nccc(-c3cnn4ncccc34)n2)cc1",
    "inhibition [%]": 14
  },
  {
    "Compound": "COc1cc(Nc2ncc(-c3ccccc3)o2)cc(OC)c1OC",
    "inhibition [%]": 8.78
  },
  {
    "Compound": "O=C(Nc1n[nH]c2nc(-c3ccc(O)cc3)c(Br)cc12)C1CC1",
    "inhibition [%]": 14.1
  },
  {
    "Compound": "CN(c1ccc(NC(=O)Nc2c(Cl)cccc2Cl)cc1)c1ccnc(Nc2cccc(CS(C)(=O)=O)c2)n1",
    "inhibition [%]": 15.4
  },
  {
    "Compound": "Cc1ccc(C(=O)NC2CCC2)cc1-c1ccc(C(=O)NCC2CC2)cc1",
    "inhibition [%]": 2.18
  },
  {
    "Compound": "O=C(Nc1n[nH]c2cc(-c3ccccc3)ccc12)C1CC1",
    "inhibition [%]": 6.05
  },
  {
    "Compound": "FC(F)(F)c1cccc(Nc2nccc(-c3cnn4nc(-c5ccccc5)ccc34)n2)c1",
    "inhibition [%]": -0.41
  },
  {
    "Compound": "Fc1ccc(-c2ncn(C3CCNCC3)c2-c2ccnc(Oc3ccc4c(c3)OCO4)n2)cc1",
    "inhibition [%]": 11.2
  },
  {
    "Compound": "NCc1ccc(-n2c(-c3nonc3N)nc3cnccc32)cc1",
    "inhibition [%]": 53.5
  },
  {
    "Compound": "CN(C)CCCNc1nccc(-c2c(-c3ccc(F)cc3)nn3cc(C(F)(F)F)ccc23)n1",
    "inhibition [%]": 1.95
  },
  {
    "Compound": "COc1ccc2ncn(-c3cc(O[C@H](C)c4ccccc4Cl)c(C(N)=O)s3)c2c1",
    "inhibition [%]": 9.87
  },
  {
    "Compound": "Cc1nnc(-c2ccc(C)c(-c3ccc(C(=O)NCc4ccc(Cl)cc4)cc3)c2)o1",
    "inhibition [%]": -3.04
  },
  {
    "Compound": "COc1ccc(-c2ccc3c(NC(=O)C4CC4)n[nH]c3n2)cc1",
    "inhibition [%]": 5.11
  },
  {
    "Compound": "C#Cc1cccc(Nc2ncnc3ccc(OCCCCNCCS(C)(=O)=O)cc23)c1",
    "inhibition [%]": 1.7
  },
  {
    "Compound": "COc1cc(N2CCN(C(C)C)CC2)ccc1Nc1nc(Nc2ccc(F)cc2C(=O)NC[C@@H](O)CO)c2cc[nH]c2n1",
    "inhibition [%]": 14.5
  },
  {
    "Compound": "Fc1ccc(-c2ncn(C3CCNCC3)c2-c2ccnc(Oc3ccc(F)c(F)c3)n2)cc1",
    "inhibition [%]": -4.05
  },
  {
    "Compound": "C/C(Nc1ccc(S(N)(=O)=O)cc1)=C1/C(=O)Nc2ccccc21",
    "inhibition [%]": 18.4
  },
  {
    "Compound": "Cc1ccc(C(=O)NC(C)C)cc1-c1ccc(C(=O)NCC2CC2)cc1",
    "inhibition [%]": -1.69
  }
]
